- assay.protocol: NCI Yeast Anticancer Drug Screen. Data for the mec2-1 strain (AID 157)
- condition.notes: S. cerevisiae mec2-1 strain, active compounds read high; at 50.0 µM unless noted
The panel holds about 79,000 compounds, 15% with a hit somewhere; the sample as a whole holds those more often. Calls of active or inactive are those of the source. Cut-off read from the data, not from the text of the source: active = growth inhibition above about 70%; inactive = the rest.
The entries below come with measured growth inhibition values attached.

{"molecule": "CC1=NN(c2ccccc2)C(=O)C1O (configuration not stated)", "metric": "growth inhibition", "result.value": "16.2% (inactive)"}
{"molecule": "CCc1ccc(O)cc1O", "metric": "growth inhibition", "result.value": "-12.9% (inactive)"}
{"molecule": "CC(C)(C)SC(=S)SCC(=O)c1ccc(F)cc1", "metric": "growth inhibition", "result.value": "-36.4% (inactive)"}
{"molecule": "NC1CC(=O)c2ccccc21 (configuration not stated)", "metric": "growth inhibition", "result.value": "4.8% (inactive)"}
{"molecule": "O=C1CCC2OC3CCC(=O)N3CN12 (configuration not stated)", "metric": "growth inhibition", "result.value": "8% (inactive)"}

Ask | Fill in: growth inhibition of `[O-][N+](CCO)(CCO)c1ncnc2nc[nH]c12` is ___
Reply | -12.7% (inactive)

Ask | What value of measured growth inhibition is listed for `CNC(=O)c1n[nH]nc1Sc1c([N+](=O)[O-])ncn1C` ?
Reply | -43% (inactive)
